This section presents binders with their documented kon values.
# TGT: T1, IL-11 (UniProt P20809 22-199, limits assumed)
# T1 construct: also called IL-11 protein; IL-11 antigen
# T1 sequence (looked up): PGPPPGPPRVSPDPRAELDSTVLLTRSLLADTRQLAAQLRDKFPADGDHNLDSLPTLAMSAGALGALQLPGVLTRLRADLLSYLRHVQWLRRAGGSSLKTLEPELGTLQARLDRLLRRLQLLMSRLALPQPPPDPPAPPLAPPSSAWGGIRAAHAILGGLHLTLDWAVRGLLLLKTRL
# METHOD_DESCRIPTION: SPR Biacore, scFv captured, IL-11 400 nM
ATTRIBUTE_MEASURED: kon (M⁻¹ s⁻¹)

BINDER | TEST_VALUE
“VH2+VL3”-scFv (scFv) scFv: QVQLVQSGAEVKKPGASVKVSCKASDYTFTNYWLGWVRQAPGQGLEWIGHIYPGGGYTNYNEKFKGRVTMTADTSTSTVYMELSSLRSEDTAVYFCARVRSGNDALDFWGQGTLVTVSSGGGGSGGGGSGGGGSEIVLTQSPATLSLSPGERATLSCRASESVDEYGISFMNWFQQKPGQAPRLLIYSASNQGSGIPARFSGSGSGTDFTLTISSLEPEDFAVYFCQQSKEVPWTFGGGTKLEIK | 45600
“VH1+VL3”-scFv (scFv) scFv: QVQLVQSGAEVKKPGASVKVSCKASDYTFTNYWLGWVRQAPGQGLEWMGHIYPGGGYTNYNEKFKGRVTMTRDTSTSTVYMELSSLRSEDTAVYYCARVRSGNDALDFWGQGTLVTVSSGGGGSGGGGSGGGGSEIVLTQSPATLSLSPGERATLSCRASESVDEYGISFMNWFQQKPGQAPRLLIYSASNQGSGIPARFSGSGSGTDFTLTISSLEPEDFAVYFCQQSKEVPWTFGGGTKLEIK | 35500
“VH3+VL1”-scFv (scFv) scFv: QVQLVQSGAEVKKPGASVKVSCKASDYTFTNYWLGWVRQAPGQGLEWIGHIYPGGGYTNYNEKFKGRATLTADTSTSTVYMELSSLRSEDTAVYFCARVRSGNDALDFWGQGTLVTVSSGGGGSGGGGSGGGGSEIVLTQSPATLSLSPGERATLSCRASESVDEYGISFMNWYQQKPGQAPRLLIYSASNQGSGIPARFSGSGSGTDFTLTISSLEPEDFAVYYCQQSKEVPWTFGGGTKLEIK | 44500
“VH2+VL2”-scFv (scFv) scFv: QVQLVQSGAEVKKPGASVKVSCKASDYTFTNYWLGWVRQAPGQGLEWIGHIYPGGGYTNYNEKFKGRVTMTADTSTSTVYMELSSLRSEDTAVYFCARVRSGNDALDFWGQGTLVTVSSGGGGSGGGGSGGGGSEIVLTQSPATLSLSPGERATLSCRASESVDEYGISFMNWYQQKPGQAPRLLIYSASNQGSGIPARFSGSGSGTDFTLTISSLEPEDFAVYFCQQSKEVPWTFGGGTKLEIK | 45700
“VH4+VL3”-scFv (scFv) scFv: QVQLVQSGAEVKKPGASVKVSCKASDYTFTNYWLGWVRQAPGHGLEWIGHIYPGGGYTNYNEKFKGRATLTADTSTSTVYMELSSLRSEDTAVYFCARVRSGNDALDFWGQGTLVTVSSGGGGSGGGGSGGGGSEIVLTQSPATLSLSPGERATLSCRASESVDEYGISFMNWFQQKPGQAPRLLIYSASNQGSGIPARFSGSGSGTDFTLTISSLEPEDFAVYFCQQSKEVPWTFGGGTKLEIK | 46100
“VH4+VL2”-scFv (scFv) scFv: QVQLVQSGAEVKKPGASVKVSCKASDYTFTNYWLGWVRQAPGHGLEWIGHIYPGGGYTNYNEKFKGRATLTADTSTSTVYMELSSLRSEDTAVYFCARVRSGNDALDFWGQGTLVTVSSGGGGSGGGGSGGGGSEIVLTQSPATLSLSPGERATLSCRASESVDEYGISFMNWYQQKPGQAPRLLIYSASNQGSGIPARFSGSGSGTDFTLTISSLEPEDFAVYFCQQSKEVPWTFGGGTKLEIK | 55200
“VH3+VL3”-scFv (scFv) scFv: QVQLVQSGAEVKKPGASVKVSCKASDYTFTNYWLGWVRQAPGQGLEWIGHIYPGGGYTNYNEKFKGRATLTADTSTSTVYMELSSLRSEDTAVYFCARVRSGNDALDFWGQGTLVTVSSGGGGSGGGGSGGGGSEIVLTQSPATLSLSPGERATLSCRASESVDEYGISFMNWFQQKPGQAPRLLIYSASNQGSGIPARFSGSGSGTDFTLTISSLEPEDFAVYFCQQSKEVPWTFGGGTKLEIK | 47600
“VH2+VL4”-scFv (scFv) scFv: QVQLVQSGAEVKKPGASVKVSCKASDYTFTNYWLGWVRQAPGQGLEWIGHIYPGGGYTNYNEKFKGRVTMTADTSTSTVYMELSSLRSEDTAVYFCARVRSGNDALDFWGQGTLVTVSSGGGGSGGGGSGGGGSEIVLTQSPATLSLSPGERATLSCRASESVDEYGISFMNWFQQKPGQAPRLLIYSASNQGSGIPARFSGSGSGTDFTLTISSLEPEDFAMYFCQQSKEVPWTFGGGTKLEIK | 48800
“VH1+VL2”-scFv (scFv) scFv: QVQLVQSGAEVKKPGASVKVSCKASDYTFTNYWLGWVRQAPGQGLEWMGHIYPGGGYTNYNEKFKGRVTMTRDTSTSTVYMELSSLRSEDTAVYYCARVRSGNDALDFWGQGTLVTVSSGGGGSGGGGSGGGGSEIVLTQSPATLSLSPGERATLSCRASESVDEYGISFMNWYQQKPGQAPRLLIYSASNQGSGIPARFSGSGSGTDFTLTISSLEPEDFAVYFCQQSKEVPWTFGGGTKLEIK | 41300
“VH3+VL2”-scFv (scFv) scFv: QVQLVQSGAEVKKPGASVKVSCKASDYTFTNYWLGWVRQAPGQGLEWIGHIYPGGGYTNYNEKFKGRATLTADTSTSTVYMELSSLRSEDTAVYFCARVRSGNDALDFWGQGTLVTVSSGGGGSGGGGSGGGGSEIVLTQSPATLSLSPGERATLSCRASESVDEYGISFMNWYQQKPGQAPRLLIYSASNQGSGIPARFSGSGSGTDFTLTISSLEPEDFAVYFCQQSKEVPWTFGGGTKLEIK | 46500
